Biological target: human recombinant Aurora B (Homo sapiens (Human), UniProt Q96GD4)
Sequence (Q96GD4 whole entry): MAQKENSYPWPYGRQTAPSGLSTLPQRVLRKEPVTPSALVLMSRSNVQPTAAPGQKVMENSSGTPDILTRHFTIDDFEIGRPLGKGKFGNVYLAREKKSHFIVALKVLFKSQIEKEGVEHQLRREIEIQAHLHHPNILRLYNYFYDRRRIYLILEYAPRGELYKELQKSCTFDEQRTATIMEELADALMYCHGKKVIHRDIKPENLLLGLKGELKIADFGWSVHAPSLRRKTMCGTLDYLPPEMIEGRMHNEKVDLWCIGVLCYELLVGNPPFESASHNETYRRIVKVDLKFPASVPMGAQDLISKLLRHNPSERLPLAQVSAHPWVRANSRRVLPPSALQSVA
Experiment: Aurora B Kinase Biochemical Assay (ADP-Glo)
Settings: ratio of Aurora B IC50 to PLK4 IC50 (selectivity)
Procedure: Activity of human recombinant Aurora B (ThermoFisher, cat #PR9210B) was measured by quantification of adenosine diphosphate (ADP) using the ADP-Glo Kinase Assay Kit (Promega, cat #V9102). […] The simultaneous conversion of the remaining ADP to ATP and measurement of the newly synthesized ATP was achieved by addition of 20 µL Kinase Detection reagent (Promega, cat #V914B), incubation for 30 min at RT, and luminescence detection using the EnVision plate reader (PerkinElmer). […]
metric name: [Aurora B IC50 (nM)]/[PLK4 IC50 (nM)]

Reference set, count: 5
Dear colleague, I am looking for the recorded [Aurora B IC50 (nM)]/[PLK4 IC50 (nM)] of the following molecule: COc1ccc2c(c1)[C@]1(C[C@H]1c1ccc3c(Nc4ncc(S(=O)(=O)N5CCCO5)cc4OC)n[nH]c3c1)C(=O)N2 [Example 267]
406.8833

COc1ccc2c(c1)[C@]1(C[C@H]1c1ccc3c(Nc4nc(OC)ncc4Cl)n[nH]c3c1)C(=O)N2 [Example 23] , same question.
170.7409

Follow-up item: COc1cnc(C)nc1Nc1n[nH]c2c(F)c([C@@H]3C[C@@]34C(=O)Nc3ccc(F)cc34)ccc12 [Example 142]
26.308

Let us now turn to CCOc1cnc(SC)nc1Nc1n[nH]c2cc([C@@H]3C[C@@]34C(=O)Nc3ccc(OC)cc34)ccc12 [Example 195]
740.3846

Here is the next molecule: COc1ccc2c(c1)[C@]1(C[C@H]1c1ccc3c(Nc4cccc5c4OCC5)n[nH]c3c1)C(=O)N2 [Example 16]
11.76

[P] COc1ccc2c(c1)[C@]1(C[C@H]1c1ccc3c(Nc4nc(CCO)nc(N5CCOCC5)c4OC)n[nH]c3c1)C(=O)N2 [Example 68]
[Q] COc1ccc2c(c1)[C@]1(C[C@H]1c1ccc3c(Nc4nc(C)nc5c4OCC5)n[nH]c3c1)C(=O)N2 [Example 153]
// returns P or Q , whichever has the lower [Aurora B IC50 (nM)]/[PLK4 IC50 (nM)] To answer, give the label that identifies your chosen option.
Q
(Q: 123.6097, P: 1347.967)

[P] COc1ccc2c(c1)[C@]1(C[C@H]1c1ccc3c(Nc4cc(N5CC(O)C5)ncn4)n[nH]c3c1)C(=O)N2 [Example 36]
[Q] COc1ccc2c(c1)[C@]1(C[C@H]1c1ccc3c(Nc4ccc(C#N)nc4OC)n[nH]c3c1)C(=O)N2 [Example 260]
[R] COc1ccc2c(c1)[C@]1(C[C@H]1c1ccc3c(Nc4nc(C)ncc4OCC(F)F)n[nH]c3c1)C(=O)N2 [Example 147]
[S] COc1ccc2c(c1)[C@]1(C[C@H]1c1ccc3c(Nc4ncnc(N5CCS(=O)(=O)CC5)c4OC)n[nH]c3c1)C(=O)N2 [Example 54]
[T] COc1ccc2c(c1)[C@]1(C[C@H]1c1ccc3c(Nc4nc(C5COC5)ncc4Cl)n[nH]c3c1)C(=O)N2 [Example 118]
Order each entry by recorded [Aurora B IC50 (nM)]/[PLK4 IC50 (nM)], climbing from the minimum. Ranked list of labels, please, in the requested order.
P, S, Q, R, T
(P: 5.701, S: 117.2684, Q: 294.8429, R: 483.0689, T: 902.3357)
